src = patent US9216999B2

biological target: Tyk2 (Homo sapiens (Human), UniProt P29597); assay: Tyk2 enzyme assay (Assay Example^b 1); details: IC50 (μM) TYK2, ATP 100 μM
Sequence (P29597 whole entry): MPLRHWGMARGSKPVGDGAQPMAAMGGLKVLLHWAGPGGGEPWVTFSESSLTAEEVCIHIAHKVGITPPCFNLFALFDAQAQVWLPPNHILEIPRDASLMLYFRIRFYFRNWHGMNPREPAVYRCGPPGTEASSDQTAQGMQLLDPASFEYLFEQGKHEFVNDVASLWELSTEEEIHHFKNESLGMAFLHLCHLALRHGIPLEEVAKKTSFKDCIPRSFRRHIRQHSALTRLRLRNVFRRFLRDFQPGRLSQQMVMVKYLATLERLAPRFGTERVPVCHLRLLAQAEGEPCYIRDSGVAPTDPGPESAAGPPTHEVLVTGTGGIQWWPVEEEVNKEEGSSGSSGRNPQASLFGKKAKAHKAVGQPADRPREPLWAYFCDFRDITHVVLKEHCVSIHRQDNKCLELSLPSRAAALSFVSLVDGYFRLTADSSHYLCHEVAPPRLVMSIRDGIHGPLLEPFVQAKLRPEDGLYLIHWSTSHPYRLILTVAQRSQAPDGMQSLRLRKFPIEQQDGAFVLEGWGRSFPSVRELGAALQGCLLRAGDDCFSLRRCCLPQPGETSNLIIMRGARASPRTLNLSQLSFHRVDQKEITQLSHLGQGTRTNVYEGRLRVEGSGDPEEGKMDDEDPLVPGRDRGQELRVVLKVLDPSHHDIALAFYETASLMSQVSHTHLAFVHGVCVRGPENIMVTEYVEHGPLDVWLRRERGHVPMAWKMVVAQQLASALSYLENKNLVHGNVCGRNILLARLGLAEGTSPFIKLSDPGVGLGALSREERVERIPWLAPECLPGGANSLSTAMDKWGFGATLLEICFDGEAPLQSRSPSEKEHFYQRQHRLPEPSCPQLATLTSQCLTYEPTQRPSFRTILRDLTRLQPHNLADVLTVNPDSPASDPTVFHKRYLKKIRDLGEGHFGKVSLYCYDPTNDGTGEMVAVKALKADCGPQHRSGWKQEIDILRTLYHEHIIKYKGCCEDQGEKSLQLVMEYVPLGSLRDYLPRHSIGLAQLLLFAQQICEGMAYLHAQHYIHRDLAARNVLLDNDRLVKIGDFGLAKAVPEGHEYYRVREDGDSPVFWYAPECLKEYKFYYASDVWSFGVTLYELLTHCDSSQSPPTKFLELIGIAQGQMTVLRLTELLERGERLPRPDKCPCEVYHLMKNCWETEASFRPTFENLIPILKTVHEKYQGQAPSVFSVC

- Molecule: "O=CC1CCC(n2c(=O)[nH]c(=O)c3cnc4[nH]ccc4c32)CC1 (centres unmarked)"
  Assayed system: "Tyk2 (Homo sapiens (Human), UniProt P29597)"
  IC50: "0.41 µM"
- Molecule: "O=c1c2cnc3[nH]ccc3c2n(C2CCCCC2)c(=O)n1CC(F)(F)F [Synthetic Example^b 139]"
  Assayed system: "Tyk2 (Homo sapiens (Human), UniProt P29597)"
  IC50: "> 1 µM"
- Molecule: "Cn1c(=O)c2cnc3[nH]ccc3c2n(C2CCCCC2)c1=O [Synthetic Example^b 138]"
  Assayed system: "Tyk2 (Homo sapiens (Human), UniProt P29597)"
  IC50: "> 1 µM"
- Molecule: "O=c1[nH]c(=O)n(C2C3CC4CC2CC(O)(C4)C3)c2c1cnc1[nH]ccc12 (centres unmarked) [compound 105]"
  Assayed system: "Tyk2 (Homo sapiens (Human), UniProt P29597)"
  IC50: "> 1 µM"
- Molecule: "O=c1ccn(C2C3CC4CC2CC(O)(C4)C3)c2c1cnc1[nH]ccc12 (centres unmarked) [compound 106]"
  Assayed system: "Tyk2 (Homo sapiens (Human), UniProt P29597)"
  IC50: "0.38 µM"
- Molecule: "CC(C)(C)OC(=O)N1CCC(NCCN2CCC(n3c(=O)[nH]c(=O)c4cnc5[nH]ccc5c43)CC2)CC1"
  Assayed system: "Tyk2 (Homo sapiens (Human), UniProt P29597)"
  IC50: "> 1 µM"
- Molecule: "O=c1ccn(C2C3CC4CC2CC(O)(C4)C3)c2c1cnc1[nH]ccc12 (centres unmarked) [compound 107]"
  Assayed system: "Tyk2 (Homo sapiens (Human), UniProt P29597)"
  IC50: "> 1 µM"
- Molecule: "O=c1[nH]c(=O)n(C2C3CC4CC2CC(O)(C4)C3)c2c1cnc1[nH]ccc12 (centres unmarked) [compound 104]"
  Assayed system: "Tyk2 (Homo sapiens (Human), UniProt P29597)"
  IC50: "0.38 µM"
